assay: chemical genetic growth profiling, strain panel (AID 1159580);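 further: tested at 20 µM; growth read once vehicle control cultures reached saturation at 30 °C; 1 = growth at the plate median or of vehicle wells; lower values mean less growth of the strain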; conditions: S. cerevisiae deletion strains, growth OD, locus YBL061C, strain skt5, stronger effect = lower value
Hit rate of the full screen: of about 5,500 compounds, about 2,000 (36%) were called active. Not shown: some 18% with an inconclusive outcome. This is one part of the list.
Reported normalized growth by item:
Hey, just send me the number, nothing else.

For orientation, consider the following solved cases.
CC(=O)O[C@H]1CCC2(C)C3=C(CCC2C1(C)C)[C@]1(C)CCC(C(C)CCC=C(C)C)[C@@]1(C)CC3 (stereo partly specified) :: 0.99
NS(=O)(=O)c1cc2c(cc1Cl)NC(CSCc1ccccc1)=NS2(=O)=O :: 1.02
COC(=O)c1c(C)c2c(c(C)c1O)OC(=O)c1c(C)c(Cl)c(O)c(Cl)c1O2 :: 0.968
CC(C)=CCCC(C)[C@@H]1CC[C@]2(C)C3=C(CC[C@@]12C)C1(C)CC[C@H](O)C(C)(C)C1CC3 (stereo partly specified) :: 1.08
COC(=O)c1c(OC)cc2c(c1C)Oc1c(Cl)c(OC(C)=O)c(Cl)c(C)c1C(=O)O2 :: 0.977

// next item, normalized growth requested
Q: Name the recorded normalized growth for COC(=O)c1c(OC)cc2c(c1C)Oc1c(Cl)c(O)c(Cl)c(C)c1C(=O)O2 .
Ans: 0.993
